# Lookup of reported pIC50 keyed by entry
target: Mitogen-activated protein kinase kinase kinase kinase 1 (Homo sapiens, UniProt Q92918); experiment: HPK-1 biochemical enzyme assay
Sequence (Q92918 whole entry): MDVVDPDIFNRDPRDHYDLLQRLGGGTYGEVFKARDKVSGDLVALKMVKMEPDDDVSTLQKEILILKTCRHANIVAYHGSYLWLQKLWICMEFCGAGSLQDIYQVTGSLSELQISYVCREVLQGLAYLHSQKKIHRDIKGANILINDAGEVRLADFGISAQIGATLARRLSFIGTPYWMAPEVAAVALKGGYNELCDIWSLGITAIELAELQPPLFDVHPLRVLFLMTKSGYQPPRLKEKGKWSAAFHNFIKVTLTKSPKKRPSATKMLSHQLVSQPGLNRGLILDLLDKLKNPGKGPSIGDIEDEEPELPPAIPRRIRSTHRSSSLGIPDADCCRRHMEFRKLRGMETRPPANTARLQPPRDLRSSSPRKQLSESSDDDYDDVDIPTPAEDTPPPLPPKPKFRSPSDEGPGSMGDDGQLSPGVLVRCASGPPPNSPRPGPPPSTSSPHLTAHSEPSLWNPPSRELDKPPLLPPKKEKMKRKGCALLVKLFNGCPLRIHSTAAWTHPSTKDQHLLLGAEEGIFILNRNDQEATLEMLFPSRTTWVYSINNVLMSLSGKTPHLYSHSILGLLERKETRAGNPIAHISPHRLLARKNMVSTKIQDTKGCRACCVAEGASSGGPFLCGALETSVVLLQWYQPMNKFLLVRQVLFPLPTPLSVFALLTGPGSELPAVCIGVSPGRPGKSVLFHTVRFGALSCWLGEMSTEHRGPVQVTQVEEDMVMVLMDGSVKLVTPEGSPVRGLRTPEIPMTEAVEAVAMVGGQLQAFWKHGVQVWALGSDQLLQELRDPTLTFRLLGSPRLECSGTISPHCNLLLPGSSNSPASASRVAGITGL
pIC50: −log10 of the molar value.

QUERY: Consider the compound COCCN1CCN(c2ccc(NC(=O)c3c(Nc4cnc5c(c4C)NCCO5)cc[nH]c3=O)cc2C)CC1 [US20250282794, Example 275] and give its measured pIC50.
RESULT: > 8.00

QUERY: Follow-up entry: COCCN1CCN(c2ccc(NC(=O)c3c(Nc4cnc5c(c4C)NCCO5)cc[nH]c3=O)cc2F)CC1 [US20250282794, Example 194]
RESULT: > 8.00

QUERY: Follow-up entry: COCCCN1CCN(c2ccc(NC(=O)c3c(Nc4cnc5c(c4C)NCCO5)cc[nH]c3=O)cc2)CC1 [US20250282794, Example 277]
RESULT: > 8.00
